Where these numbers come from: ChEMBL document CHEMBL1138328

Let's go through some recorded pIC50 values for NAD(P)H dehydrogenase [quinone] 1 (Homo sapiens, UniProt P15559) together.
Scale for pIC50: -log10 of concentration given in mol/L; no unit attached.

{"MOLECULE": "COc1cc(C(c2c(O)c3ccccc3oc2=O)c2c(O)c3ccccc3oc2=O)ccc1O", "OBSERVED": 5.00}
{"MOLECULE": "O=c1c(C(c2cnc3ccccc3c2)c2c(O)oc3ccccc3c2=O)c(O)oc2ccccc12", "OBSERVED": 4.74}
{"MOLECULE": "O=c1c(Cc2c(O)oc3cc(O)ccc3c2=O)c(O)oc2cc(O)ccc12", "OBSERVED": 6.46}
{"MOLECULE": "COc1ccc(C(c2c(O)c3ccccc3oc2=O)c2c(O)c3ccccc3oc2=O)cc1", "OBSERVED": 5.06}
{"MOLECULE": "O=c1c(C(c2ccco2)c2c(O)oc3ccccc3c2=O)c(O)oc2ccccc12", "OBSERVED": 5.23}

# input molecule: O=c1c(C(c2cccs2)c2c(O)oc3ccccc3c2=O)c(O)oc2ccccc12 ; wanted: its pIC50
5.00

Would you mind doing O=c1c(C(c2ccc3ccccc3c2)c2c(O)oc3ccccc3c2=O)c(O)oc2ccccc12 as well?
5.07

Would you mind doing O=C1OC2C=CC=CC2=C2Oc3c(c(=O)oc4ccccc34)C(c3c(O)c4ccccc4oc3=O)C12 (centres undefined) as well?
6.22

Would you mind doing Nc1cc(=O)oc2ccccc12 as well?
4.89

* * *

# System: MIA PaCa-2
# EXPERIMENT_SUMMARY: Effect on respiration rate in human MIA PaCa2 cells assessed as oxygen consumption per 10^6 cells at 100 uM
# Format: functional
Each item that follows carries a reported Activity.
Give just the numeric value; nmol/min need not be written.

# input molecule: O=C1OC2C=CC=CC2=C2Oc3c(c(=O)oc4ccccc34)C(c3c(O)c4ccccc4oc3=O)C12 (centres undefined) ; wanted: its Activity
2.5

Would you mind doing O=c1oc2ccccc2c(O)c1Cc1c(O)c2ccccc2oc1=O as well?
7

Would you mind doing O=c1c(Cc2c(O)oc3cc(O)ccc3c2=O)c(O)oc2cc(O)ccc12 as well?
2.6

Would you mind doing O=c1oc2ccccc2c(O)c1C1c2ccccc2Oc2c1c(=O)oc1ccccc21 (centres undefined) as well?
2.5

* * *

# TARGET_SYSTEM: NAD(P)H dehydrogenase [quinone] 1 (Homo sapiens, UniProt P15559)
# Sequence (P15559 whole entry): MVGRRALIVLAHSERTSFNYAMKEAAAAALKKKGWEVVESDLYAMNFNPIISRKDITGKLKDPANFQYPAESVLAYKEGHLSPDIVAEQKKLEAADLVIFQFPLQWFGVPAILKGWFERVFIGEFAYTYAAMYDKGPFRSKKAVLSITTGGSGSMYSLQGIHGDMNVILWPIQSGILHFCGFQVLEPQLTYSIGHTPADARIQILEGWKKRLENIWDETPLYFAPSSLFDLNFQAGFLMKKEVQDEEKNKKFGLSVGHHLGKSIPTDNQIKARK
So basically, if IC50 comes in under 400 nM it's 1.0, and if it's 400 nM or more it's 0.0.

Solved cases below.
{"MOLECULE": "O=c1c(C(c2cccs2)c2c(O)oc3ccccc3c2=O)c(O)oc2ccccc12", "GROUP": 0.0}
{"MOLECULE": "O=C1OC2C=CC=CC2=C2Oc3c(c(=O)oc4ccccc34)C(c3c(O)c4ccccc4oc3=O)C12 (centres undefined)", "GROUP": 1.0}

Is IC50 of COc1cc(C(c2c(O)c3ccccc3oc2=O)c2c(O)c3ccccc3oc2=O)ccc1O strictly below 400 nM?
0.0

Would you mind doing Nc1cc(=O)oc2ccccc12 as well?
0.0

Would you mind doing O=c1c(C(c2cnc3ccccc3c2)c2c(O)oc3ccccc3c2=O)c(O)oc2ccccc12 as well?
1.0

Would you mind doing O=c1c(Cc2c(O)oc3cc(O)ccc3c2=O)c(O)oc2cc(O)ccc12 as well?
1.0

Would you mind doing O=c1c(C(c2ccco2)c2c(O)oc3ccccc3c2=O)c(O)oc2ccccc12 as well?
0.0

Would you mind doing O=c1c(C(c2ccc3ccccc3c2)c2c(O)oc3ccccc3c2=O)c(O)oc2ccccc12 as well?
1.0

Would you mind doing COc1ccc(C(c2c(O)c3ccccc3oc2=O)c2c(O)c3ccccc3oc2=O)cc1 as well?
1.0
